Tested on: Wolbachia pipientis
Experiment: Anti-Wolbachia Cell-Based Screen
Type: functional
Design: scale not given: in the data most compounds retested in dose-response had high values
Settings: 5 µM
Among all 48,000 compounds or so, about 13,000 (27%) showed an effect of 50% or more. Some of the results follow.

{"compound": "COCC(=O)N1CCN(C)CC(Cc2cc(N(C)C)ncn2)C1 (centres undefined)", "Percent Effect [%]": 95.35}
{"compound": "COCC(=O)N1CCCC(C(=O)N(C)CCCc2cnn(C)c2)C1 (centres undefined)", "Percent Effect [%]": 14.99}
{"compound": "CCc1nc(N2CCCC(CCOC)(C(=O)O)C2)ncc1C (centres undefined)", "Percent Effect [%]": 2.702}
{"compound": "Cc1csc([C@H]2C[C@@H]3CCN(C(=O)c4cnccn4)C[C@H]3O2)n1", "Percent Effect [%]": 7.08}
{"compound": "CC(C)CNC(=O)N1CC[C@@H]2CN(Cc3cccnc3)S(=O)(=O)[C@@H]2CC1.O=C(O)C(F)(F)F", "Percent Effect [%]": 96.93}
{"compound": "COCC(=O)N1CC[C@@H]2CN(Cc3cccc(Cl)c3)S(=O)(=O)[C@@H]2CC1", "Percent Effect [%]": -12.94}
{"compound": "O=C(c1cc[nH]n1)N1CC[C@@H]2CN(Cc3cccnc3)S(=O)(=O)[C@@H]2CC1", "Percent Effect [%]": -2.568}
{"compound": "CC(=O)N1CC[C@@H]2CN(Cc3ccncc3)S(=O)(=O)[C@@H]2CC1.O=C(O)C(F)(F)F", "Percent Effect [%]": -10.18}
{"compound": "COCC(=O)N1CC[C@@H]2CN(Cc3cccnc3)S(=O)(=O)[C@@H]2CC1", "Percent Effect [%]": 104.6}

---

Measured Percent Effect values are reported for all entries that follow.
System: Wolbachia pipientis
Test: Anti-Wolbachia Cell-Based Screen
Type: functional
Parameters: scale not given: in the data most compounds retested in dose-response had high values
Details: 5 µM
Screen size: about 48,000 compounds; about 13,000 (27%) showed an effect of 50% or more. The list shows a part of the results.
recorded-endpoint: Percent Effect (%)

{"compound": "Cc1cc(C(=O)NCC(c2ccsc2)N(C)C)no1 (stereo unspecified)", "recorded-endpoint": "Percent Effect", "unit-name": "%", "test-result": 113.7}
{"compound": "Cc1noc([C@H]2C[C@@H]3CCN(CC4CC4)C[C@H]3O2)n1.O=C(O)C(F)(F)F", "recorded-endpoint": "Percent Effect", "unit-name": "%", "test-result": 1.445}
{"compound": "Cc1noc([C@H]2CC[C@@H]3[C@@H](CCN3c3ncccn3)O2)n1", "recorded-endpoint": "Percent Effect", "unit-name": "%", "test-result": 101.9}
{"compound": "CN(C)C(CNC(=O)c1ncoc1-c1ccccc1)c1ccsc1 (stereo unspecified)", "recorded-endpoint": "Percent Effect", "unit-name": "%", "test-result": -4.122}
{"compound": "Cc1nn(-c2ccccc2)nc1C(=O)NCC(c1ccsc1)N(C)C (stereo unspecified)", "recorded-endpoint": "Percent Effect", "unit-name": "%", "test-result": -0.008163}
{"compound": "O=S1(=O)CCCN1Cc1coc(-c2ccc(C(F)(F)F)cc2)n1", "recorded-endpoint": "Percent Effect", "unit-name": "%", "test-result": -8.069}
{"compound": "Cc1cc(CN(C)C(=O)NC2CCCC2)no1", "recorded-endpoint": "Percent Effect", "unit-name": "%", "test-result": -3.677}
{"compound": "Cc1noc([C@@H]2CC[C@@H]3[C@@H](CCN3c3nnc(C)s3)O2)n1.O=C(O)C(F)(F)F", "recorded-endpoint": "Percent Effect", "unit-name": "%", "test-result": 108.3}
{"compound": "CN(C)C(=O)C1CCCN1c1ccnc2ccsc12 (stereo unspecified)", "recorded-endpoint": "Percent Effect", "unit-name": "%", "test-result": -11.69}
{"compound": "Cc1noc([C@H]2CC[C@@H]3[C@@H](CCN3S(C)(=O)=O)O2)n1", "recorded-endpoint": "Percent Effect", "unit-name": "%", "test-result": 5.645}
{"compound": "Cc1noc([C@H]2C[C@@H]3CCN(c4nnc(C)s4)C[C@H]3O2)n1.O=C(O)C(F)(F)F", "recorded-endpoint": "Percent Effect", "unit-name": "%", "test-result": 107.3}
{"compound": "Cc1cc(NC(=O)NCC(c2ccsc2)N(C)C)n(C)n1 (stereo unspecified)", "recorded-endpoint": "Percent Effect", "unit-name": "%", "test-result": -2.678}
{"compound": "Cc1noc(C)c1C(=O)NCC(c1ccc(F)cc1)N(C)C (stereo unspecified)", "recorded-endpoint": "Percent Effect", "unit-name": "%", "test-result": -4.601}
{"compound": "Cc1noc([C@@H]2C[C@@H]3CCN(CC4CCOCC4)C[C@H]3O2)n1.O=C(O)C(F)(F)F", "recorded-endpoint": "Percent Effect", "unit-name": "%", "test-result": 8.264}
{"compound": "COCCCNC(=O)Nc1ccc(OCc2noc(C3CC3)n2)cc1", "recorded-endpoint": "Percent Effect", "unit-name": "%", "test-result": 4.086}
{"compound": "CCN(CC)C(CNC(=O)c1c(C)noc1C(C)C)c1ccsc1 (stereo unspecified)", "recorded-endpoint": "Percent Effect", "unit-name": "%", "test-result": 108.9}
{"compound": "Cc1noc(C(C)C)c1C(=O)NCC(c1ccsc1)N(C)C (stereo unspecified)", "recorded-endpoint": "Percent Effect", "unit-name": "%", "test-result": -2.505}
{"compound": "O=c1nc(SCc2ccc(Cl)cc2)c2c(n1CCO)CCC2", "recorded-endpoint": "Percent Effect", "unit-name": "%", "test-result": 7.751}
{"compound": "Cc1nn(C)c(Cl)c1C(=O)NCC(c1ccsc1)N(C)C (stereo unspecified)", "recorded-endpoint": "Percent Effect", "unit-name": "%", "test-result": -1.114}
{"compound": "Cc1noc([C@H]2C[C@@H]3CCN(CC4CCOCC4)C[C@H]3O2)n1.O=C(O)C(F)(F)F", "recorded-endpoint": "Percent Effect", "unit-name": "%", "test-result": 8.046}
{"compound": "Cc1noc([C@@H]2CC[C@@H]3[C@@H](CCN3S(=O)(=O)C3CC3)O2)n1", "recorded-endpoint": "Percent Effect", "unit-name": "%", "test-result": -8.52}
